System: SpTbr T-box DNA-binding domain (GST fusion);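 further: protein at 200 nM in PBS on universal double-stranded arrays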
Sequence: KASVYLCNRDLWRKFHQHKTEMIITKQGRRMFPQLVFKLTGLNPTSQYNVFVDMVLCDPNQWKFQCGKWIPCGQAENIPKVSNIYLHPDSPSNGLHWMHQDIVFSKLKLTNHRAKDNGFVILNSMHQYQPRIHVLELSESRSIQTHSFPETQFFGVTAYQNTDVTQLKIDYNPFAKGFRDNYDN
Experiment: PBM E-score of 8-mer (E-score (dimensionless, -0.5 to 0.5)); Tbr is Tbrain of the sea star Patiria miniata (Pm) or the sea urchin Strongylocentrotus purpuratus (Sp); higher = stronger binding preference
Settings: the construct has about 5 more residues each side
The full ranking holds about 33,000 sequences; the median of “E-score (dimensionless, -0.5 to 0.5)” is about -0.046, and the highest 2% start at about 0.36. This is one part of a sample in which the highest values are shown more often than they occur.
Measured PBM E-score of 8-mer values are reported for all entries that follow.
result_type: PBM E-score of 8-mer

| macromolecule_sequence | result_number |
| --- | --- |
| TCACACGA | 0.387 |
| CTACTACC | -0.112 |
| CAGCTGCC | -0.0128 |
| CCTTTTAG | 0.0506 |
| CGATGGAG | -0.131 |
| GGCCGTAC | -0.249 |
| ACACACGA | -0.00198 |
| AGGTGAAC | 0.164 |
| CACAGTTA | 0.147 |
| CAATAGAC | -0.0363 |
| CAGGTCGC | 0.225 |

Origin of the recorded values: the supplement of paper PMC4166925
